- measurement_target: Protein farnesyltransferase (Homo sapiens, UniProt P49354+P49356)
- method: Effect on Ras processing in Cos-1 monkey kidney cells expressing either H-Ras-Val 12-CVLS or H-Ras-Val12.
- Format: functional, cell-based, Cercopithecidae
reported_property: IC50 (µM)

> print(dat)
                               smiles.input  readout.unit  observed.measurement
1  CCN(CC)C(=O)CN1CCC(CC(=O)N2CCC([C@H]3c4ncc(Br)cc4CCc4cc(Cl)cc(Br)c43)CC2)CC1            µM                  0.04
2  CN(C)S(=O)(=O)N1CCC(CC(=O)N2CCC([C@H]3c4ncc(Br)cc4CCc4cc(Cl)cc(Br)c43)CC2)CC1            µM                 0.009

[P] O=C(CC1CCN(C(=O)Cn2cccc2)CC1)N1CCC([C@H]2c3ncc(Br)cc3CCc3cc(Cl)cc(Br)c32)CC1
[Q] C[C@@H](N)C(=O)N1CCC(CC(=O)N2CCC([C@H]3c4ncc(Br)cc4CCc4cc(Cl)cc(Br)c43)CC2)CC1
Incoming: Out of P and Q , name the one with the higher IC50. Reply with the label of the item you choose.
Outgoing: Q
(Q: 0.039 µM, P: 0.009 µM)

----------
- measurement_target: Protein farnesyltransferase (Homo sapiens, UniProt P49354+P49356)
- method: Effect on Ras processing in Cos-1 monkey kidney cells expressing either H-Ras-Val 12-CVLS or H-Ras-Val12.
- Format: functional, cell-based, Cercopithecidae
In this section we review reported IC50 values for a set of molecules.

Below, 2 molecules whose answers are already recorded.
> print(dat)
                               smiles.input  reported.property  observed.measurement
1  N#CCC(=O)N1CCC(CC(=O)N2CCC([C@H]3c4ncc(Br)cc4CCc4cc(Cl)cc(Br)c43)CC2)CC1               IC50               < 10 nM
2  O=C(CC1CCN(C(=O)Cn2cncn2)CC1)N1CCC([C@H]2c3ncc(Br)cc3CCc3cc(Cl)cc(Br)c32)CC1               IC50               < 10 nM

Incoming: Requested read-out IC50, target or system Protein farnesyltransferase (Homo sapiens, UniProt P49354+P49356), entry NC(=O)C(=O)N1CCC(CC(=O)N2CCC([C@H]3c4ncc(Br)cc4CCc4cc(Cl)cc(Br)c43)CC2)CC1
Outgoing: < 10 nM
